Test system: Micrococcus luteus
experiment: Antimicrobial activity against Micrococcus luteus ML01 assessed as inhibition of bacterial growth incubated for 16 to 18 hrs by broth micro dilution technique
Format: functional
condition.description: time 16-18 hrs
quantity.name: MIC (µg/mL)
Form entry: value (µg/mL) — number only.

molecule	MIC / µg/mL
CN[C@H](CC(C)C)C(=O)N[C@H]1C(=O)N[C@@H](CC(N)=O)C(=O)N[C@H]2C(=O)N[C@H]3C(=O)N[C@H](C(=O)N[C@H](C(=O)O)c4cc(O)cc(O)c4-c4cc3ccc4O)[C@H](O)c3ccc(c(Cl)c3)Oc3cc2cc(c3O[C@@H]2O[C@H](CO)[C@@H](O)[C@H](O)[C@H]2O[C@H]2C[C@](C)(N)[C@H](O)[C@H](C)O2)Oc2ccc(cc2Cl)[C@H]1O [VANCOMYCIN]	0.25

Note to self: MIC recorded for `CC(C)[C@H]1C(=O)O[C@H](C)[C@H](NC(=O)c2c3nc4c(C(=O)N[C@@H]5C(=O)N[C@H](C(C)C)C(=O)N6CCC[C@H]6C(=O)N(CO)CC(=O)N(C)[C@@H](C(C)C)C(=O)O[C@@H]5C)ccc(Br)c4oc-3c(Br)c(=O)c2N)C(=O)N[C@H](C(C)C)C(=O)N2CCC[C@H]2C(=O)N(C)CC(=O)N1C` was 2

Note to self: MIC recorded for `CC(C)[C@H]1C(=O)O[C@H](C)[C@H](NC(=O)c2c3nc4c(C(=O)N[C@@H]5C(=O)N[C@H](C(C)C)C(=O)N6CCC[C@H]6C(=O)N(C)CC(=O)N(C)[C@@H](C(C)C)C(=O)O[C@@H]5C)ccc(Br)c4oc-3c(Br)c(=O)c2N)C(=O)N[C@H](C(C)C)C(=O)N2C[C@@H](O)C[C@H]2C(=O)N(C)CC(=O)N1C` was 0.5

Note to self: MIC recorded for CC1(C)S[C@@H]2[C@H](NC(=O)[C@H](N)c3ccccc3)C(=O)N2[C@H]1C(=O)O [AMPICILLIN] was 0.13

Note to self: MIC recorded for `CC(C)[C@H]1C(=O)O[C@H](C)[C@H](NC(=O)c2c3nc4c(C(=O)N[C@@H]5C(=O)N[C@H](C(C)C)C(=O)N6CCC[C@H]6C(=O)N(C)CC(=O)N(C)[C@@H](C(C)C)C(=O)O[C@@H]5C)cccc4oc-3c(Cl)c(=O)c2N)C(=O)N[C@H](C(C)C)C(=O)N2CCC[C@H]2C(=O)N(C)CC(=O)N1C` was 0.25
